Target: Cyclin-dependent kinase 4/cyclin D1 (Homo sapiens)
Sequence (P11802 whole entry): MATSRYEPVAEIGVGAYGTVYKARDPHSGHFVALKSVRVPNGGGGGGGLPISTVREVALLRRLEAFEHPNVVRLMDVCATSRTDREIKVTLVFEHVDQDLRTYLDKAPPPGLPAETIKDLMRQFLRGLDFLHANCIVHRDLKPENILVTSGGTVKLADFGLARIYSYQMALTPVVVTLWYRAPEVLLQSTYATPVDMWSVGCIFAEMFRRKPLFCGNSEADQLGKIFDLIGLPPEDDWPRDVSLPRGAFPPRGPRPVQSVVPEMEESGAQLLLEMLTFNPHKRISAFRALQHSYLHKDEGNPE
Sequence (P24385 whole entry, further chain): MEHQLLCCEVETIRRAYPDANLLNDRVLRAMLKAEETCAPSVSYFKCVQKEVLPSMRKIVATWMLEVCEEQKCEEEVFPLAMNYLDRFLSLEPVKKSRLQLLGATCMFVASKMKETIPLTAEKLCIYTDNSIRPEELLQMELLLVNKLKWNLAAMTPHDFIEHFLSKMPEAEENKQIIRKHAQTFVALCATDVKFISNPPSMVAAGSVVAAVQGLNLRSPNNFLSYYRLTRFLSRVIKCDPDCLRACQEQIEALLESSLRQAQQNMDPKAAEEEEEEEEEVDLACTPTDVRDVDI
property measured: Ki (nM)

Example entries and their recorded answers appear below.
CCCC(=O)N1CCC(Nc2ncc(C(=O)c3ccccc3OC)c(N)n2)CC1    98
Cc1ccccc1C(=O)c1cnc(Nc2ccc(N3CCN(C)CC3)cc2)nc1N    584
COc1ccc(Cl)cc1C(=O)c1cnc(NC2CCN(S(C)(=O)=O)CC2)nc1N    36
COc1ccccc1C(=O)c1cnc(Nc2ccc(N3CCN(C)CC3)cc2)nc1N    159
CCOC(=O)N1CCC(Nc2ncc(C(=O)c3ccccc3OC)c(N)n2)CC1    110

(I) COc1cc(F)c(F)c(F)c1C(=O)c1cnc(NC2CCN(S(C)(=O)=O)CC2)nc1N
(II) COc1ccccc1C(=O)c1cnc(NC2CCNCC2)nc1N
Query string: Record comparison, field Ki: mark the lower of I and II . Use the label to indicate which entry you chose.
Result string: I
(I: 1 nM, II: 481 nM)
